src = ChEMBL document CHEMBL5154845

- METHOD DESCRIPTION: Clearance in male ICR mouse at 20 mg/kg, ip measured up to 24 hrs by LC-MS/MS analysis
- Type: ADME, organism-based
- CONDITION SET: in vivo
PARAMETER: CL/F (mL/min/kg)
Use mL/min/kg as the unit, but write only the number.

In one line, give reported CL/F of the entry Nc1nc(-c2ccco2)c2cnn(CCc3ccc(C(=O)Nc4ccccc4N)cc3)c2n1 .
33.5

====

PARAMETER: pIC50
Scale: negative log10 of molar concentration, which is what pIC50 denotes.

Using Histone deacetylase 2 (Homo sapiens, UniProt Q92769) as the test system, report measured pIC50 of Nc1nc(-c2ccco2)c2cnn(CCc3ccc(C(=O)Nc4ccccc4N)cc3)c2n1 .
6.62

====

- METHOD DESCRIPTION: AUC (0 to t) in male ICR mouse at 20 mg/kg, ip measured up to 24 hrs by LC-MS/MS analysis
- Format: ADME, organism-based
- Parameters: dose 20 mg/kg, time < 24 hrs, route ip
- CONDITION SET: in vivo
PARAMETER: AUC(0-t) at 24 h (ng·h/mL)
Use ng·h/mL as the unit, but write only the number.

In one line, give reported AUC(0-t) at 24 h of the entry Nc1nc(-c2ccco2)c2cnn(CCc3ccc(C(=O)Nc4ccccc4N)cc3)c2n1 .
10000

====

- METHOD DESCRIPTION: Elimination rate constant in male ICR mouse at 20 mg/kg, po measured up to 24 hrs by LC-MS/MS analysis
- Type: ADME, organism-based
- CONDITION SET: in vivo
PARAMETER: k el at 24 h (s⁻¹)
Use s⁻¹ as the unit, but write only the number.

In one line, give reported k el at 24 h of the entry Nc1nc(-c2ccco2)c2cnn(CCc3ccc(C(=O)Nc4ccccc4N)cc3)c2n1 .
0.000108

In one line, give reported k el at 24 h of the entry Nc1nc(-c2ccco2)c2cnn(Cc3cccc(OCCCCCCC(=O)NO)n3)c2n1 .
0.000131

In one line, give reported k el at 24 h of the entry Nc1nc(-c2ccco2)c2cnn(Cc3cccc(/C=C/C(=O)NO)c3)c2n1 .
2.69e-05

====

- METHOD DESCRIPTION: Tmax in male ICR mouse at 20 mg/kg, ip measured up to 24 hrs by LC-MS/MS analysis
- Format: ADME, organism-based
- CONDITION SET: in vivo
PARAMETER: Tmax

In one line, give reported Tmax of the entry Nc1nc(-c2ccco2)c2cnn(CCc3ccc(C(=O)Nc4ccccc4N)cc3)c2n1 .
15 min

====

- METHOD DESCRIPTION: Bioavailability in male ICR mouse at 20 mg/kg,ip measured up to 24 hrs by LC-MS/MS analysis
- Type: ADME, organism-based
- CONDITION SET: in vivo
PARAMETER: bioavailability
A complete answer gives the number followed by the unit.

In one line, give reported bioavailability of the entry Nc1nc(-c2ccco2)c2cnn(CCc3ccc(C(=O)Nc4ccccc4N)cc3)c2n1 .
119%

====

- Test system: MC-38
- METHOD DESCRIPTION: Antiproliferative activity against mouse MC38 cells after 72 hrs by CCK-8 assay
- Assay type: functional
Consider the following compounds; for each one, report its GI50.
Use µM as the unit, but write only the number.

In one line, give reported GI50 of the entry Nc1nc(-c2ccco2)c2cnn(CCCCCCC(=O)NO)c2n1 .
0.35

In one line, give reported GI50 of the entry Nc1nc(-c2ccco2)c2cnn(Cc3cccc(/C=C/C(=O)NO)c3)c2n1 .
1.91

In one line, give reported GI50 of the entry Nc1nc(-c2ccco2)c2cnn(Cc3cccc(OCCCCCCC(=O)NO)n3)c2n1 .
5.06

In one line, give reported GI50 of the entry Cc1ccc(-c2nc(N)nc3c2cnn3Cc2cccc(OCCCCCCC(=O)NO)c2)o1 .
11.3

In one line, give reported GI50 of the entry O=C(CCCCCCC(=O)Nc1ccccc1)NO [VORINOSTAT] .
2.74

In one line, give reported GI50 of the entry Nc1nc(-c2ccco2)c2cnn(Cc3ccc(N)c(OCCCCCCC(=O)NO)c3)c2n1 .
28.2

In one line, give reported GI50 of the entry Cc1ccc(-c2nc(N)nc3c2cnn3Cc2cccc(OCCCCCCC(=O)NO)n2)o1 .
6.41

In one line, give reported GI50 of the entry Nc1nc(-c2ccco2)c2cnn(CCCc3ccc(C(=O)Nc4ccccc4N)cc3)c2n1 .
6.96

In one line, give reported GI50 of the entry Nc1nc(-c2ccco2)c2cnn(Cc3cccc(OCCCCCCC(=O)NO)c3)c2n1 .
12.2

In one line, give reported GI50 of the entry Nc1nc(-c2ccco2)c2cnn(Cc3cccc(OCCCCCC(=O)NO)c3)c2n1 .
9.82

In one line, give reported GI50 of the entry Nc1ccccc1NC(=O)c1ccc(CNc2nccc(-c3cccnc3)n2)cc1 [MOCETINOSTAT] .
1.64

====

Quick note: these are IC50 numbers for system: Histone deacetylase 1 (Homo sapiens)
Use nM as the unit, but write only the number.

In one line, give reported IC50 of the entry Nc1nc(-c2ccco2)c2cnn(Cc3ccc(C(=O)NO)cc3)c2n1 .
12.8

In one line, give reported IC50 of the entry Cc1ccc(-c2nc(N)nc3c2cnn3CCCCCCCC(=O)NO)o1 .
7.2

In one line, give reported IC50 of the entry Nc1nc(-c2ccco2)c2cnn(CCCCCCC(=O)NO)c2n1 .
2.4

In one line, give reported IC50 of the entry Cc1ccc(-c2nc(N)nc3c2cnn3CCc2ccc(C(=O)NO)cc2)o1 .
73.5

In one line, give reported IC50 of the entry Cc1ccc(-c2nc(N)nc3c2cnn3CCCOc2ccc(C(=O)Nc3ccccc3N)cc2)o1 .
226

====

- METHOD DESCRIPTION: Half-life in male ICR mouse at 5 mg/kg, iv measured up to 24 hrs by LC-MS/MS analysis
- Format: ADME, organism-based
- CONDITION SET: in vivo
PARAMETER: half-life (min)
Use min as the unit, but write only the number.

In one line, give reported half-life of the entry Nc1nc(-c2ccco2)c2cnn(CCc3ccc(C(=O)Nc4ccccc4N)cc3)c2n1 .
23.3

====

Quick note: these are IC50 numbers for system: Histone deacetylase 1 (Homo sapiens, UniProt Q13547)
Sequence (Q13547 whole entry): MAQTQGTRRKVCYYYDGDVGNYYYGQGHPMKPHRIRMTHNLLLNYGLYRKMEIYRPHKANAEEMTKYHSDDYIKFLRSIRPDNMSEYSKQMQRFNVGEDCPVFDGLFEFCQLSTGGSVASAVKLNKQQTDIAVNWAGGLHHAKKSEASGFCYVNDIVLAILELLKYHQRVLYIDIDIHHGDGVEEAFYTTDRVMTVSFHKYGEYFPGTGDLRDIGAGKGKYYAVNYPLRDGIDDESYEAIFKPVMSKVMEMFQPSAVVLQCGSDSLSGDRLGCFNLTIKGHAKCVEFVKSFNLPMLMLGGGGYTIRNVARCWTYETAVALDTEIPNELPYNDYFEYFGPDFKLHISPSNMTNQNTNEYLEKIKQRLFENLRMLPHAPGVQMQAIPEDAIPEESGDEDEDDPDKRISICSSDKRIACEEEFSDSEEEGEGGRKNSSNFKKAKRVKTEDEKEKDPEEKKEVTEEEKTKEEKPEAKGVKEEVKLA
Use nM as the unit, but write only the number.

In one line, give reported IC50 of the entry Nc1nc(-c2ccco2)c2cnn(CCCc3ccc(C(=O)NO)cc3)c2n1 .
64.5

In one line, give reported IC50 of the entry Cc1ccc(-c2nc(N)nc3c2cnn3CCCCC(=O)NO)o1 .
228

In one line, give reported IC50 of the entry Cc1ccc(-c2nc(N)nc3c2cnn3Cc2cccc(OCCCCCC(=O)NO)n2)o1 .
210

In one line, give reported IC50 of the entry Nc1nc(-c2ccco2)c2cnn(Cc3cccc(OCCCCCCC(=O)NO)c3)c2n1 .
18.5

In one line, give reported IC50 of the entry Nc1nc(-c2ccco2)c2cnn(Cc3cccc(OCCCCC(=O)NO)n3)c2n1 .
420

====

Consider the following molecules; for each one, report its pIC50.
Scale: negative log10 of molar concentration, which is what pIC50 denotes.

Using Histone deacetylase 1 (Homo sapiens, UniProt Q13547) as the test system, report measured pIC50 of Nc1nc(-c2ccco2)c2cnn(Cc3ccc(N)c(OCCCCCCC(=O)NO)c3)c2n1 .
7.43

Using Histone deacetylase 1 (Homo sapiens, UniProt Q13547) as the test system, report measured pIC50 of Cc1ccc(-c2nc(N)nc3c2cnn3Cc2cccc(/C=C/C(=O)Nc3ccccc3N)c2)o1 .
5.60

Using Histone deacetylase 1 (Homo sapiens, UniProt Q13547) as the test system, report measured pIC50 of Nc1nc(-c2ccco2)c2cnn(Cc3cccc(OCCCCCC(=O)NO)c3)c2n1 .
7.07

Using Histone deacetylase 1 (Homo sapiens, UniProt Q13547) as the test system, report measured pIC50 of Cc1ccc(-c2nc(N)nc3c2cnn3Cc2ccc(C(=O)NO)cc2)o1 .
7.85

Using Histone deacetylase 1 (Homo sapiens, UniProt Q13547) as the test system, report measured pIC50 of Cc1ccc(-c2nc(N)nc3c2cnn3Cc2cccc(OCCCCC(=O)NO)n2)o1 .
6.24

Using Histone deacetylase 1 (Homo sapiens, UniProt Q13547) as the test system, report measured pIC50 of Nc1nc(-c2ccco2)c2cnn(Cc3cccc(/C=C/C(=O)NO)c3)c2n1 .
8.08

Using Histone deacetylase 1 (Homo sapiens, UniProt Q13547) as the test system, report measured pIC50 of Nc1nc(-c2ccco2)c2cnn(CCc3ccc(C(=O)Nc4ccccc4N)cc3)c2n1 .
6.84

Using Histone deacetylase 1 (Homo sapiens, UniProt Q13547) as the test system, report measured pIC50 of Cc1ccc(-c2nc(N)nc3c2cnn3Cc2cccc(OCCCCCCC(=O)NO)n2)o1 .
7.53

Using Histone deacetylase 1 (Homo sapiens, UniProt Q13547) as the test system, report measured pIC50 of Nc1nc(-c2ccco2)c2cnn(CCCCCCCC(=O)NO)c2n1 .
8.03

Using Histone deacetylase 1 (Homo sapiens, UniProt Q13547) as the test system, report measured pIC50 of Nc1nc(-c2ccco2)c2cnn(CCOc3ccc(C(=O)Nc4ccccc4N)cc3)c2n1 .
6.98
